B1: MYBL2 (parent)
chain: FSPSQFLNFWNKQDTLELESPSLT

variants of: B1; assay: protein stability index of a GFP-peptide fusion (GPS, HEK-293T) (PSI 1-6); higher = more stable; settings: c terminus: a fixed tail appended;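 note: lentivirally expressed fusions sorted by FACS into six bins by GFP to DsRed ratio, PSI derived from sequencing read proportions per bin multiplied by bin number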
outcome_measure: protein stability index

Worked examples follow.
change	protein stability index
S4A	2.14
W10V	1.89
T15N	3
K12G	4.46
Q13R	1.21
W10N	3.38

Next item in the queue.
Query: Quick one: protein stability index of `S20Q` ?
Response: 3.9
